System: Staphylococcus aureus
experiment.description: Agar well diffusion, zone of inhibition
Assay type: cell-based
assay.setup: 37 °C, 24 h
Listed molecules paired with reported zone of inhibition at 100 µg/mL
Use mm as the unit, but write only the number.

# example entries with known answers
>>> print(df.to_string())
                                   molecule                     readout_name  endpoint_unit  number
0  CCCCCCc1ccccc1 [1-Hexyl benzene, 1-hexylbenzene]  zone of inhibition at 100 µg/mL             mm     3.4
1  Oc1cc(O)cc(O)c1 [Phloroglucinol, Benzene-1,3,5-triol]  zone of inhibition at 100 µg/mL             mm     9.5
2  O=c1c(O)c(-c2ccc(O)cc2O)oc2cc(O)cc(O)c12 [Morin]  zone of inhibition at 100 µg/mL             mm      13

Consider the record given below.
Prompt: Query: zone of inhibition at 100 µg/mL; subject: C[C@@H](O)[C@H]1C(=O)N2C(C(=O)O)=C(SCCN=CN)C[C@H]12 [Imipenem, reference compound]
Response: 25

* * *

This section presents molecules with their documented zone of inhibition at 100 µg/mL values.
System: Bacillus cereus
experiment.description: Agar well diffusion, zone of inhibition
Type: cell-based
assay.setup: 37 °C, 24 h
Reply numerically in mm, unit not repeated.

                                   molecule  number
0  Oc1cc(O)cc(O)c1 [Phloroglucinol, Benzene-1,3,5-triol]      13

Prompt: Consider the molecule shown here: C[C@@H](O)[C@H]1C(=O)N2C(C(=O)O)=C(SCCN=CN)C[C@H]12 [Imipenem, reference compound] What is its recorded zone of inhibition at 100 µg/mL?
Response: 30

Prompt: Give the measured zone of inhibition at 100 µg/mL of O=c1c(O)c(-c2ccc(O)cc2O)oc2cc(O)cc(O)c12 [Morin] .
Response: 17

Prompt: Suppose we examine the molecule CCCCCCc1ccccc1 [1-Hexyl benzene, 1-hexylbenzene] ; what zone of inhibition at 100 µg/mL value has been reported?
Response: 8.5

* * *

experiment.description: DPPH free radical scavenging assay
Assay type: biochemical
assay.setup: 125 µg/mL
readout.name: % DPPH Scavenging Mean ± SEM (%)
Give your result in % as a bare value.

In [3]: df
Out[3]:
                                   molecule  endpoint_unit  number
0  O=c1c(O)c(-c2ccc(O)cc2O)oc2cc(O)cc(O)c12              %      68

Prompt: Fill in: % DPPH Scavenging Mean ± SEM of O=C1O[C@H]([C@@H](O)CO)C(O)=C1O [Ascorbic acid, ascorbic acid, reference compound] is ___
Response: 77

Prompt: I would be grateful if you could share the reported % DPPH Scavenging Mean ± SEM for CCCCCCc1ccccc1 .
Response: 40

Prompt: Which % DPPH Scavenging Mean ± SEM is reported for this molecule? Oc1cc(O)cc(O)c1
Response: 40

* * *

System: Escherichia coli
experiment.description: Agar well diffusion, zone of inhibition
Assay type: cell-based
assay.setup: 37 °C, 24 h
Protocol: Antibacterial potential of isolated compound was investigated against both Gram-positive and Gram-negative bacterial strains; Escherichia coli, Bacillus cereus, Salmonella typhi, Klebsiella pneumonia, Pseudomonas aeruginosa and Proteus mirabilis. […] The antibacterial activity of the isolated compounds (morin, phloroglucinol, and 1-hexyl benzene) was determined using agar well diffusion method. […] After incubation, the zones of inhibition were measured in millimeters (mm) and mean values were calculated. […]
readout.name: zone of inhibition at 100 µg/mL (mm)
Return type: number; implicit unit mm.

                                   compound  number
0  Oc1cc(O)cc(O)c1 [Phloroglucinol, Benzene-1,3,5-triol]      15

Prompt: Query (compound): O=c1c(O)c(-c2ccc(O)cc2O)oc2cc(O)cc(O)c12 [Morin] ; field requested: zone of inhibition at 100 µg/mL
Response: 19

Prompt: Return reported zone of inhibition at 100 µg/mL; argument: C[C@@H](O)[C@H]1C(=O)N2C(C(=O)O)=C(SCCN=CN)C[C@H]12 [Imipenem, reference compound]
Response: 33

Prompt: Which value of zone of inhibition at 100 µg/mL has been reported for CCCCCCc1ccccc1 [1-Hexyl benzene, 1-hexylbenzene] in the records?
Response: 9.3

Ref: paper PMC8348310
